Target sequence: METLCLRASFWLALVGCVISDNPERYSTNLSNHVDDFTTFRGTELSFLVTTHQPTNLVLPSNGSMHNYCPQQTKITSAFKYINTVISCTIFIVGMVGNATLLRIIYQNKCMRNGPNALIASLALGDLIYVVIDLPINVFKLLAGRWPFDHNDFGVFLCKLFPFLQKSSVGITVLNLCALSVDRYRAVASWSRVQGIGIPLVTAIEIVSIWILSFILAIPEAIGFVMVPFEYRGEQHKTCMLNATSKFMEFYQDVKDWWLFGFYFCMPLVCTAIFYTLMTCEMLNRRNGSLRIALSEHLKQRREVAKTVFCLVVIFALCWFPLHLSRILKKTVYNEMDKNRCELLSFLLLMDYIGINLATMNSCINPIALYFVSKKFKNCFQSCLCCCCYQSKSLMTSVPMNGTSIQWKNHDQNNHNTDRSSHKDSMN
readoutType: pIC50
For clarity, pIC50 is expressed as the negative log10 of concentration in mol/L.

Worked cases, pIC50 given:
compound	pIC50
CC(C)c1ccc(S(=O)(=O)NC(=O)C(c2ccc3c(c2)OCO3)c2cn(C)c3cc(C(=O)O)ccc23)cc1 (configuration not stated)	7.66
CC(C)c1ccc(S(=O)(=O)NC(=O)C(c2ccc3c(c2)OCO3)c2cn(C)c3cc(CO)ccc23)cc1 (configuration not stated)	7.72
CCn1cc(C(C(=O)NS(=O)(=O)c2ccc(C(C)C)cc2)c2ccc3c(c2)OCO3)c2ccc(C(=O)N(C)C)cc21 (configuration not stated)	7.14
COc1ccc(S(=O)(=O)NC(=O)C(c2ccc3c(c2)OCO3)c2cn(C)c3cc(C(N)=O)ccc23)cc1 (configuration not stated)	8.55
Cc1ccccc1S(=O)(=O)NC(=O)C(c1ccc2c(c1)OCO2)c1cn(C)c2cc(C(N)=O)ccc12 (configuration not stated)	8.28
CCOc1cc(C)ccc1S(=O)(=O)NC(=O)C(c1ccc2c(c1)OCO2)c1cn(C)c2cc(C(N)=O)ccc12 (configuration not stated)	9.26

Proceeding to the next compound to report its pIC50.
## Input Please look up its pIC50: COc1cc(C)ccc1S(=O)(=O)NC(=O)C(c1ccc2c(c1)OCO2)c1cn(C)c2cc(C(N)=O)ccc12 (configuration not stated)
## Output 8.96
